Test system: WT E. coli
protocol notes: Minimal inhibitory concentration in wild-type E. coli
Format: cell-based, Escherichia coli
study conditions: wild-type E. coli, 37° C., 16 hours; read-out: MIC (μM) in WT E. coli
MIC for assorted compounds

{"given smiles": "CO[C@@H]1[C@@H](OC(N)=O)[C@@H](O)[C@H](Oc2ccc3c(O)c(NC(=O)c4cc(O)c(O)c(-c5ccc(F)cc5)c4)c(=O)oc3c2C)OC1(C)C", "relation operator": "=", "MIC, µM": 38}
{"given smiles": "CO[C@@H]1[C@@H](OC(N)=O)[C@@H](O)[C@H](Oc2ccc3c(O)c(NC(=O)c4ccccc4)c(=O)oc3c2C)OC1(C)C", "relation operator": ">", "MIC, µM": 300}
{"given smiles": "CO[C@@H]1[C@@H](OC(N)=O)[C@@H](O)[C@H](Oc2ccc3c(O)c(NC(=O)c4cccc(-c5ccc(OC(F)(F)F)cc5)c4)c(=O)oc3c2C)OC1(C)C", "relation operator": ">", "MIC, µM": 300}
{"given smiles": "CO[C@@H]1[C@@H](OC(N)=O)[C@@H](O)[C@H](Oc2ccc3c(O)c(NC(=O)c4ccc(O)c(-c5ccccc5)c4)c(=O)oc3c2C)OC1(C)C", "relation operator": "=", "MIC, µM": 26}
{"given smiles": "CO[C@@H]1[C@@H](OC(N)=O)[C@@H](O)[C@H](Oc2ccc3c(O)c(NC(=O)c4ccc(C#Cc5ccccc5)cc4)c(=O)oc3c2C)OC1(C)C", "relation operator": "=", "MIC, µM": 40}
{"given smiles": "CO[C@@H]1[C@@H](OC(N)=O)[C@@H](O)[C@H](Oc2ccc3c(O)c(NC(=O)c4ccc(O)c(CCC(N)=O)c4)c(=O)oc3c2C)OC1(C)C", "relation operator": ">", "MIC, µM": 300}
{"given smiles": "CO[C@@H]1[C@@H](OC(N)=O)[C@@H](O)[C@H](Oc2ccc3c(O)c(NC(=O)c4ccc(C)o4)c(=O)oc3c2C)OC1(C)C", "relation operator": ">", "MIC, µM": 300}

Where do the numbers come from? From patent US11713335B2.
